- assayed_target: human SGLT1 (Homo sapiens)
- Construct: Full-length human SGLT1 cDNA on pDream2.1 expression vector was obtained from GenScript Corporation; host or cells: COS-7 cells
- Sequence (P13866 1-664): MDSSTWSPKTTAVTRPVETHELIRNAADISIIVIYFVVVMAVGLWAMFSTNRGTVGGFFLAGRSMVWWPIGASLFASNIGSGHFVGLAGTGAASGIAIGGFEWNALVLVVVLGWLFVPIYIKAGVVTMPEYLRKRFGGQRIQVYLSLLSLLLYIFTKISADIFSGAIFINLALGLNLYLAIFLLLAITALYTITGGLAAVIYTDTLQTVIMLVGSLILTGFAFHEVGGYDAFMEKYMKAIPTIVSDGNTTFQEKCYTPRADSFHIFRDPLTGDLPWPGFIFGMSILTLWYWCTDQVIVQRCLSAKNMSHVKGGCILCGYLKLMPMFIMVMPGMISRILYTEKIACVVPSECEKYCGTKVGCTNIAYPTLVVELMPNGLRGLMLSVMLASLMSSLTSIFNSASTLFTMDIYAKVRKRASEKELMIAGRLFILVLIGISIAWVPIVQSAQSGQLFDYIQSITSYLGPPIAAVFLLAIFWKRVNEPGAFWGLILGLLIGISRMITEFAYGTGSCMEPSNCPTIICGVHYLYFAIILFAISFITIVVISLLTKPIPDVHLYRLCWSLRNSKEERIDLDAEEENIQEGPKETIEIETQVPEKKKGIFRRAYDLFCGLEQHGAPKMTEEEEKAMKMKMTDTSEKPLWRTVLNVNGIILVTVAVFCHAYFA
- measurement_protocol: Methyl-α-D-[U-14C]glucopyranoside uptake assay, human SGLT1 expressing cells
- Format: cell-based
- run_parameters: COS-7 cells expressing human SGLT1, 2 h incubation, without human serum (symbols without parentheses)
Examples of molecules with documented IC50 follow.

{"columns": ["molecule", "assayed_target", "IC50"],
 "data": [
  ["CCc1ccc(Cc2cc3c(cc2Cl)OC(OC)C[C@]32O[C@H](CO)[C@@H](O)[C@H](O)[C@H]2O)cc1 (stereo partly shown)", "human SGLT1 (Homo sapiens)", "> 100 µM"],
  ["CCc1ccc(Cc2ccc3c(c2)[C@]2(CCO3)O[C@H](CO)[C@@H](O)[C@H](O)[C@H]2O)cc1", "human SGLT1 (Homo sapiens)", "> 100 µM"],
  ["CCc1ccc(Cc2cc3c(cc2Cl)OCC[C@]32O[C@H](CO)[C@@H](O)[C@H](O)[C@H]2O)cc1", "human SGLT1 (Homo sapiens)", "10 to 100 µM"]
]}

Input line: Which IC50 reading was recorded for the molecule CCc1ccc(Cc2cc3c(cc2Cl)OC(O)C[C@]32O[C@H](CO)[C@@H](O)[C@H](O)[C@H]2O)cc1 (stereo partly shown) ?
Output line: > 100 µM
